system: WM266.4 melanoma cells; assay: SRB Cell Proliferation Assay (SRB GI50); format: cell-based; settings: Homo sapiens, WM 266-4, 144 h, 6 days growth

{"COMPOUND": "CNc1cnc2c(Oc3ccc(NC(=O)Nc4cc(C(F)(F)F)ccc4F)c(F)c3)ccnc2n1 [AA-055]", "GI50": "1000 to 10000 nM"}
{"COMPOUND": "CC(C)(C)c1cc(NC(=O)Nc2ccc(Oc3ccnc4nc(N)c(=O)[nH]c34)c3ccccc23)n(-c2ccccc2)n1 [AA-081]", "GI50": "< 1000 nM"}
{"COMPOUND": "CC(C)(C)c1cc(NC(=O)Nc2ccc(Oc3ccnc4[nH]c(=O)cnc34)cc2F)n(-c2ccc(S(C)(=O)=O)cc2)n1 [AA-090]", "GI50": "< 1000 nM"}
{"COMPOUND": "Cc1ccc(-n2nc(C(C)(C)C)cc2NC(=O)Nc2ccc(Oc3ccnc4[nH]c(=O)c(N)nc34)c3ccccc23)cc1 [AA-077]", "GI50": "< 1000 nM"}
{"COMPOUND": "CC(C)(C)c1cc(NC(=O)Nc2cccc(Oc3ccnc4[nH]c(=O)cnc34)c2)n(-c2ccccc2)n1 [AA-075]", "GI50": "< 1000 nM"}
{"COMPOUND": "CC(C)(C)c1cc(NC(=O)Nc2ccc(Oc3ccnc4[nH]c(=O)cnc34)cc2F)n(CC2CC2)n1 [AA-097]", "GI50": "1000 to 10000 nM"}
{"COMPOUND": "CN(C)c1cnc2c(Oc3ccc(NC(=O)Nc4cc(C(C)(C)C)nn4-c4ccccc4)c(F)c3)ccnc2n1 [AA-070]", "GI50": "1000 to 10000 nM"}
{"COMPOUND": "Cc1ccc(-n2nc(C(C)(C)C)cc2NC(=O)Nc2ccc(Oc3ccnc4nc(CBr)c(=O)[nH]c34)cc2F)cc1 [AA-058]", "GI50": "1000 to 10000 nM"}
{"COMPOUND": "COCn1nc(C(C)(C)C)cc1NC(=O)Nc1ccc(Oc2ccnc3[nH]c(=O)cnc23)cc1F [AA-098]", "GI50": "1000 to 10000 nM"}
{"COMPOUND": "COc1ccc(-n2nc(C(C)(C)C)cc2NC(=O)Nc2ccc(Oc3ccnc4[nH]c(=O)cnc34)cc2F)cn1 [AA-062]", "GI50": "< 1000 nM"}
{"COMPOUND": "CC(C)(C)c1cc(NC(=O)Nc2ccc(Oc3ccnc4[nH]c(=O)c(N)nc34)c3ccccc23)n(-c2ccccc2)n1 [AA-080]", "GI50": "< 1000 nM"}
{"COMPOUND": "CSc1cc(Oc2ccnc3ncc(=O)[nH]c23)ccc1NC(=O)Nc1cc(C(C)(C)C)nn1-c1ccccc1 [AA-066]", "GI50": "< 1000 nM"}
{"COMPOUND": "O=C(Nc1ccc(Oc2ccnc3[nH]c(=O)cnc23)cc1F)Nc1cc(C(F)(F)F)ccc1-n1cccn1 [AA-094]", "GI50": "1000 to 10000 nM"}
{"COMPOUND": "C#CCn1nc(C(C)(C)C)cc1NC(=O)Nc1ccc(Oc2ccnc3[nH]c(=O)cnc23)cc1F [AA-096]", "GI50": "1000 to 10000 nM"}
{"COMPOUND": "CSc1cc(Oc2ccnc3[nH]c(=O)c(C)nc23)ccc1NC(=O)Nc1cc(C(C)(C)C)nn1-c1ccc(C)cc1 [AA-061]", "GI50": "< 1000 nM"}
